Tested on: Plasmodium falciparum
Assay: GSK_TCMDC: Inhibition of Plasmodium falciparum Dd2 in whole red blood cells, using parasite LDH activity as an index of growth. Test compounds present at 2uM
Format: functional
outcome.measure: Inhibition (%)
Numeric only. Scale: %

Req: Under Plasmodium falciparum: Inhibition value of Cc1ccc2cc(NC(=O)c3cccc(C(=O)Nc4ccc5nc(C)ccc5c4)n3)ccc2n1 ?
Resp: 23

Continuing:
Req: Under Plasmodium falciparum: Inhibition value of Cn1c(NC(=O)c2ccc(CNC(=O)c3ccc(O)c(-c4ccc(Cl)c(Cl)c4)c3)cc2)nc2ccccc21 ?
Resp: 74

Req: Note, next up: CC(C)CCN(Cc1cncn1Cc1cccc(C(F)(F)F)c1)C(=O)c1cncc(-c2ccccc2)c1
Resp: 4

Req: Note, next up: COc1ccccc1C1CCN(C2CCC(NC(=O)c3ccc4[nH]c(-c5ccc(C)cc5)nc4c3)CC2)CC1 (stereo not drawn)
Resp: 100

Req: Note, next up: Cn1ccnc1CNC(=O)c1ccc(-c2cccc(-c3nc4cc(C(F)(F)F)ccc4[nH]3)c2)cc1
Resp: 80

Req: Note, next up: CC1(C)OC[C@]2(C)[C@@H](CC[C@]3(C)C4=CC(=O)CCC4CC[C@@H]23)O1 (stereo partly drawn)
Resp: 95

Req: Note, next up: O=C(/C=C/c1ccc(Cl)c(Cl)c1)NCCCCCN1CCCN(C(=O)Nc2ccc(F)c(Cl)c2)CC1
Resp: 0

Req: Note, next up: CC(=O)Nc1ncc(C(=O)Nc2cccc(-c3ccc(-c4nc5cc(F)ccc5[nH]4)cc3)c2)s1
Resp: 78

----------
Test system: Plasmodium falciparum
Test: GSK_TCMDC: Inhibition of Plasmodium falciparum Dd2 in whole red blood cells, using parasite LDH activity as an index of growth. Test compounds present at 2uM
Type: functional
Quick rule for you: Inhibition at 70% or higher means Yes, lower means No.

Check out these entries, answers already filled in.
Req: Record c1ccc2c3c(ccc2c1)Sc1c(ccc2ccccc12)N3 ; criterion: Inhibition no lower than 70%. Met?
Resp: No

Req: Note, next up: CN(C)c1ccc(-c2ccc(C(=O)NC3CCN(Cc4ccccc4)CC3)s2)cc1.O=C(O)C(F)(F)F
Resp: No

Req: Note, next up: CC(C)c1cccc(OCC2CCN(c3ncc(C(=O)Nc4ccccc4)cc3Cl)CC2)c1
Resp: Yes

Req: Note, next up: O=C(CSc1nc(-c2ccccc2Cl)ns1)Nc1cccc(Cl)c1
Resp: Yes

Req: Note, next up: Cc1cccc(NC(=O)NCc2ccccc2)n1
Resp: No

Req: Note, next up: CCc1c(CCNCCCCCCNCCc2ccc(OC)c(OC)c2CC)ccc(OC)c1OC.Cl
Resp: No

Continuing:
Req: Record CCc1ccc(OCc2ccccc2C(=O)Nc2ccc3nc(C)cc(N)c3c2)cc1.Cl ; criterion: Inhibition no lower than 70%. Met?
Resp: Yes

Req: Note, next up: Cc1cccc(-c2ccc(NC(=O)Nc3ccc4nccc(N5CCN(C)CC5)c4c3)cc2C)n1.Cl
Resp: Yes

Req: Note, next up: CCCCN1Cc2c(n(CC(=O)Nc3ccccc3)c3cc(-c4ccccc4)nn3c2=O)C1=O
Resp: No

----------
System: Plasmodium falciparum
Test: GSK_TCMDC: Inhibition of Plasmodium falciparum Dd2 in whole red blood cells, using parasite LDH activity as an index of growth. Test compounds present at 2uM
Format: functional
// reported Inhibition for each item listed
Numeric only. Scale: %

Below: 8 compounds and their reported Inhibition.
Req: What measured Inhibition goes with CCn1c(-c2nonc2N)nc2c(-c3cc4ccccc4s3)ncc(C(=O)N3CCC(N)C3)c21.O=C(O)C(F)(F)F (stereo not drawn) ?
Resp: 66

Req: Note, next up: COc1ccc2ncc(F)c(CCN3C4CCC3CC(NCc3cc5c(cn3)OCS5)C4)c2n1.Cl (stereo not drawn)
Resp: 48

Req: Note, next up: CCOC(=O)c1ccc(NC(=O)Nc2ccc(Cn3ncc(N4CCCNCC4)c(Cl)c3=O)cc2)cc1.O=C(O)C(F)(F)F
Resp: 58

Req: Note, next up: CN(C)CCNC(=O)N1CCCN(c2ncnc3cc(-c4ccc(Cl)cc4)sc23)CC1.O=C(O)C(F)(F)F
Resp: 21

Req: Note, next up: O=C(Cn1cnc2c(nnn2Cc2ccccc2F)c1=O)Nc1ccc2c(c1)OCCO2
Resp: 1

Req: Note, next up: Cc1cc(NC(=O)NCCN2CCC(NC(=O)c3ccc(C(F)(F)F)cc3)CC2)c2ccccc2n1.O=C(O)C(F)(F)F
Resp: 75

Req: Note, next up: c1ccc(-n2cncn2)cc1
Resp: 96

Req: Note, next up: Cc1nn(-c2ccc(Cl)cc2)c2[nH]c(CN3CCN(c4cccc(Cl)c4)CC3)cc(=O)c12
Resp: 98

Continuing:
Req: What measured Inhibition goes with COc1ccc2nccc([C@@H](O)CN3CCC(NCc4cc5cccnc5[nH]4)CC3)c2n1.O=C(O)C(=O)O ?
Resp: 0

Req: Note, next up: COc1cc(C(=O)NC2CCN(Cc3ccccc3)CC2)ccc1-c1cc2cc(Cl)c(Cl)cc2[nH]1.O=C(O)C(F)(F)F
Resp: 100

Req: Note, next up: C=CCn1ccc2c3c(N)nc(N)nc3ccc21
Resp: 91

Req: Note, next up: COc1ccc(NC(=O)CSc2nc(-c3ccccc3Cl)ns2)cc1
Resp: 75

----------
Tested on: Plasmodium falciparum
Test: GSK_TCMDC: Inhibition of Plasmodium falciparum 3D7 in whole red blood cells, using parasite LDH activity as an index of growth. Test compounds present at 2uM
Assay type: functional
outcome.measure: Inhibition

Req: What measured Inhibition goes with CCCCCCCCCn1c(NCc2cc(Cl)ccc2O)nc2ccccc21 ?
Resp: 97%

Continuing:
Req: What measured Inhibition goes with CC(C)COc1ccc(Cl)cc1Cc1ccc(-c2nc3ccc(Cl)cc3[nH]2)o1 ?
Resp: 97%

Req: Note, next up: Cl.O=c1cc(NCCCNCc2scc3c(Cl)cc(C(F)(F)F)nc23)[nH]c2ccccc12
Resp: 99%

Req: Note, next up: CNC(=O)C1Cc2c([nH]c3ccc(Br)cc23)C2(CCN(CCc3ccccc3)CC2)N1 (stereo not given)
Resp: 100%

Req: Note, next up: CCCCCCCc1c(C)nc2cccc(OC)c2c1O
Resp: 95%

----------
Tested on: Plasmodium falciparum
Assay: GSK_TCMDC: Inhibition of Plasmodium falciparum 3D7 in whole red blood cells, using parasite LDH activity as an index of growth. Test compounds present at 2uM
Format: functional
// reported Inhibition for each item listed
Numeric only. Scale: %

Req: What measured Inhibition goes with CCCC(C)Nc1nc(C)cc(N[C@@H](Cc2ccccc2)C(=O)Nc2ccc(OC)cc2)n1.O=C(O)C(F)(F)F (stereo not given in full) ?
Resp: 100

Proceeding to the next compound to report its Inhibition.
Req: What measured Inhibition goes with CCCc1c(C(=O)OCC)c2cc(O)ccc2n1-c1ccc(OC)cc1 ?
Resp: 100

----------
Tested on: Plasmodium falciparum
Assay: GSK_TCMDC: Inhibition of Plasmodium falciparum 3D7 in whole red blood cells, using parasite LDH activity as an index of growth. Test compounds present at 2uM
Type: functional
// reported Inhibition for each item listed
Numeric only. Scale: %

Below: 5 molecules and their reported Inhibition.
Req: What measured Inhibition goes with COc1ccc(-c2cccc(NC(=O)c3ccc(Cl)cc3)c2)cc1CN1CCCC1.O=C(O)C(F)(F)F ?
Resp: 97

Req: Note, next up: N#Cc1c(N2CCN(c3ccc(F)cc3)CC2)nc(N)c2c(N)nc3c(c12)CC(=O)N3C1CC1
Resp: 95

Req: Note, next up: O=C(NCCN1CCCC1)c1ccc(-c2cccc(-c3nc4cc(F)ccc4[nH]3)c2)cc1
Resp: 100

Req: Note, next up: Cn1cc(CN2CCC(OC(c3ccccc3)c3ccc(Cl)cc3)CC2)cn1 (stereo not drawn)
Resp: 94

Req: Note, next up: CCCNCc1ccc(-c2ccc(CN(CCOC)C(=O)CC3CCCC3=O)cc2)nc1.O=C(O)C(F)(F)F (stereo not drawn)
Resp: 93

Continuing:
Req: What measured Inhibition goes with COc1ccc(CNC(=O)c2cnc3c(O)cccc3c2Nc2cccc(NC(=O)c3ccc(F)cc3)c2)cc1.O=C(O)C(F)(F)F ?
Resp: 91

Req: Note, next up: COc1cc(NC(=O)c2sc(-c3ccc(Cl)cc3)cc2NC(=O)CN2CCCC2)ccc1OCCN1CCCC1.Cl
Resp: 86

Req: Note, next up: CC(=O)Nc1ccc(-c2nc3ccc(-c4nc5ccc(NC(C)=O)cc5[nH]4)cc3[nH]2)cc1
Resp: 99

Req: Note, next up: CCN(CC)CCCC(C)Nc1c2cc(OC)ccc2nc2cc(Cl)c([N+](=O)[O-])cc12 (stereo not drawn)
Resp: 100

Req: Note, next up: COc1ccc2ccc(F)c(CCN3CCC(NCc4cc5c(cn4)OCCO5)CC3)c2n1.Cl
Resp: 96
